FYI, the data here is from PubChem BioAssay (NCI).

- Tested on: HT29 colon
- Test Description: NCI tumour cell line growth inhibition, 48 h
# TGI listing for each entry below
Your answer is read as µM, so omit the unit and give the number.

N=C1C=C(N)C(=O)c2[nH]c(=O)ccc21	4.5
COc1ccc2nc3n(c2c1)CCc1cc(OC)c(OC)cc1-3	95.8
C=[CH][Sn]([CH]=C)([O]c1cccc2cccnc12)[O]c1cccc2cccnc12	7.14

Could you now look at the following molecule, please?
// query TGI value for entry O=C1c2ccccc2C(=O)N1c1nc(-c2ccc(Cl)cc2)cc(N2N=C(c3ccc(Br)cc3)CC2c2ccccc2)n1 (centres undefined)
9.66

###

# TGI listing for each entry below
- Tested on: RXF 393 renal
- Test Description: NCI tumour cell line growth inhibition, 48 h

Reference set (3 entries):
C(/Cc1ccc2c(c1)OCO2)=N\NC1=NCCCN1	> 100 µM
COc1ccc(C(O)CC(O)(C(F)(F)F)C(F)(F)F)cc1 (stereo not given)	62 µM
CN1CCc2c1nc(-c1ccc([N+](=O)[O-])cc1)c1c2N(C)CC1	> 100 µM

// query TGI value for entry `C/C(Nc1ccc(Cl)cc1Cl)=C1/CCOC1=O`
39.8 µM

// query TGI value for entry `CC(C)C(=O)Oc1cc2c(=O)oc3c(OC(=O)C(C)C)c(OC(=O)C(C)C)cc4c(=O)oc(c1OC(=O)C(C)C)c2c34`
> 100 µM
